system: MES-SA/DX5; experiment: Reversal of MDR in P-gp-expressing cell line; assay type: cell-based; conditions: Homo sapiens; MES-SA/DX5 uterine; ± SD; read-out: Formula 2 compound EC50, reversal of Doxorubicin resistance
READOUT NAME: pEC50
The value called pEC50 is obtained by taking minus log10 of the concentration in mol/L.

Any idea what pEC50 was measured for `CCOC/C=C/c1ccc(-c2nc(-c3ccc(NC(C)C)cc3)c(-c3ccc(NC(C)C)cc3)[nH]2)cc1` ?
7.62

* * *

Listed below: Cmax values for each entry.
Assay: Enhancement of the oral bioavailability of paclitaxel and docetaxel in rats
Assay type: in vivo
Conditions: male, Sprague-Dawley, rat, plasma, 10 mg/kg, Drug alone (10 mg/kg) oral, control of the OCM series
Protocol: In a further example, separate groups of eight male Sprague-Dawley rats (250-300 g body weight) with cannulae inserted into the jugular vein were purchased from Harlan-Sprague Dawley (Madison, Wis.). […] Serial blood samples (500 μl) were drawn prior to each dose (time 0) and at 0.5, 1, 2, 3, 4, 6 and 8 h through a cannula inserted into the jugular vein. […] Maximum plasma paclitaxel concentration (Cmax) and time to achieve this concentration (Tmax) were measured from concentration vs. time profiles. […]
Provide the reading as a plain figure in ng/mL.

CC(=O)O[C@H]1C(=O)[C@@]2(C)[C@H]([C@H](OC(=O)c3ccccc3)[C@]3(O)C[C@H](OC(=O)[C@H](O)[C@@H](NC(=O)c4ccccc4)c4ccccc4)C(C)=C1C3(C)C)[C@]1(OC(C)=O)CO[C@@H]1C[C@@H]2O [Paclitaxel]	75

Next item in the queue.
Tell me the measured Cmax of CC(=O)O[C@@]12CO[C@@H]1C[C@H](O)[C@@]1(C)C(=O)[C@H](O)C3=C(C)[C@@H](OC(=O)[C@H](O)[C@@H](NC(=O)OC(C)(C)C)c4ccccc4)C[C@@](O)([C@@H](OC(=O)c4ccccc4)[C@H]21)C3(C)C [Docetaxel] , please.
30
